Listed molecules paired with reported IC50
Target: COVID-19 (nCoV-2019, SARS-CoV2) Mpro (Severe acute respiratory syndrome coronavirus 2, UniProt P0DTD1)
Assay: COVID-19 (nCoV-2019, SARS-CoV2) Mpro enzymatic assay
Assay type: biochemical
Settings: 25 nM Mpro, 25 μM substrate; read-out: COVID-19 Mpro IC50

Form field: reported IC50 of CC(C)(C)c1ccc(N(C(=O)[C@H]2Cc3ccccc3CN2C#N)C(C(=O)NC2CCCCC2)c2cccnc2)cc1 (single isomer, unassigned) [Compound 374 Isomer 1]
> 30 µM

Form field: reported IC50 of COC(C)(C)CNC(=O)C(c1cccnc1)N(C(=O)[C@H]1CCCN1C#N)c1ccc(C(C)(C)C)cc1 (single isomer, unassigned) [Compound 427 Isomer 1]
10 to 30 µM

Form field: reported IC50 of CO[C@@H]1C[C@H](C(=O)N(c2ccc(C(C)(C)C)cc2)C(C)(C(=O)NC2CCC(F)(F)CC2)c2cnccn2)N(C#N)C1 (single isomer, unassigned) [1198 Isomer 1]
10 to 30 µM

----------
Biological target: UniProt:P0DTD1
Experiment: COVID-19 (nCoV-2019, SARS-CoV2) Mpro enzymatic assay
Assay type: biochemical
Conditions: 25 nM Mpro, 25 μM substrate; read-out: COVID-19 Mpro IC50
pIC50: −log10 of the molar value.
Parameter: pIC50

Compound	Result
O=C1CCCCC1C(=O)N(c1ccc(S(F)(F)(F)(F)F)cc1)C(C(=O)NC1CCC(F)(F)CC1)c1cncc(F)c1 (stereo not drawn)	4.52 to 5.00
CN1CCN(C(=O)C(c2cccnc2)N(C(=O)[C@H]2CCCN2C#N)c2ccc(C(C)(C)C)cc2)CC1 (mixture of isomers)	5.00 to 5.70
C[C@@]1(O)C[C@H](C(=O)N(c2ccc(-c3ccccc3)cc2)C(C(=O)NC2CCC(F)(F)CC2)c2cncc(F)c2)N(C#N)C1 (single isomer, unassigned) [1330 Isomer 2]	5.00 to 5.70
C[C@H](NC(=O)C(c1cncc(F)c1)N(C(=O)[C@H]1C[C@@](C)(O)CN1C#N)c1ccc(S(F)(F)(F)(F)F)cc1)c1ccccc1 (single isomer, unassigned) [1328 Isomer 2]	5.00 to 5.70
CC(C)(C)c1ccc(N(C(=O)[C@H]2C[C@@H](O)CN2C#N)C(C(=O)NC2CCOCC2)c2cccnc2)cc1 (single isomer, unassigned) [619 Isomer 2]	5.00 to 5.70

As a next step, examine the compound that follows.
API: value(readout=pIC50, system=UniProt:P0DTD1) for record CC(C)(C)c1ccc(N(C(=O)C2CNC2)C(C(=O)NC2CCCCC2)c2cccnc2)cc1 (stereo not drawn)
< 4.52

----------
Target: 229E Mpro (Human coronavirus 229E, UniProt P0C6X1)
Sequence (P0C6X1 2966-3267): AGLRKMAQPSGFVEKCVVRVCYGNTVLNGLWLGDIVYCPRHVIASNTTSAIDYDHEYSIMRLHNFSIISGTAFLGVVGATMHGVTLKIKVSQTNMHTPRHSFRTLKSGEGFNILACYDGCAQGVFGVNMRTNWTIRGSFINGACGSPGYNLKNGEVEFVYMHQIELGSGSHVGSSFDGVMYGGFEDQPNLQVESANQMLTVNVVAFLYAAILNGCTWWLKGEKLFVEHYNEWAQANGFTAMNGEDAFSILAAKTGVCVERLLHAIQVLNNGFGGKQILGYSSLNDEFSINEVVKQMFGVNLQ
Test: 229E Mpro enzymatic assay (standard methods, SARS-CoV2 Mpro assay given as exemplary)
Format: biochemical, human coronavirus (HCov) 229E
Conditions: 229E Mpro EC50
Parameter: EC50

Compound	EC50
CO[C@@H]1C[C@H](C(=O)N(c2ccc(S(F)(F)(F)(F)F)cc2)C(C(=O)NC2CC3CCC(C2)O3)c2cccnc2)N(C#N)C1 (single isomer, unassigned) [1187 Isomer 1]	< 2000 nM
CC(C)(C)c1ccc(C(C(=O)c2cnc[nH]2)C(C(=O)NC2CCCCC2)c2nccnc2C#N)cc1 (stereo not drawn)	10000 to 30000 nM
CO[C@@H]1C[C@H](C(=O)N(c2ccc(S(F)(F)(F)(F)F)cc2)C(C(=O)NC(C)C2CCCCN2C(=O)OC(C)(C)C)c2cccnc2)N(C#N)C1 (single isomer, unassigned) [1303 Isomer 2.2]	< 2000 nM
CC(C)(C)c1ccc(N(C(=O)[C@H]2CCCN2C#N)C(C(=O)N2CC(O)C2)c2cccnc2)cc1 (stereo partly drawn)	2000 to 10000 nM
CO[C@@H]1C[C@H](C(=O)N(c2ccc(S(F)(F)(F)(F)F)cc2)C(C(=O)N2CCC3(COC3)C2)c2cccnc2)N(C#N)C1 (stereo partly drawn)	< 2000 nM

Form field: reported EC50 of N#CN1CC(=O)NCC1C(=O)N(c1ccc(S(F)(F)(F)(F)F)cc1)C(C(=O)NC1CCC(F)(F)CC1)c1cncc(F)c1 (single isomer, unassigned) [Compound 1160 Isomer 3]
< 2000 nM
